Test system: SMN2 mRNA
protocolNotes: RT-qPCR splicing assay panel, SMN2 canonical junction (CJ) mRNA
Type: cell-based, human
conditionsUsed: Homo sapiens, canonical junction (CJ) mRNA, RT-qPCR panel, Table 4A; read-out: SMN2, decrease in CJ mRNA levels, IC50
attributeMeasured: IC50

Exercise: State the measured IC50 (SMN2 mRNA) of COc1cc(-c2ccc(-c3ccc(N4CCC(NC5CC(C)(C)C5)C4)nn3)c(O)c2)cnn1 (centres unmarked)
Key: 100 to 1000 nM

Exercise: State the measured IC50 (SMN2 mRNA) of Cc1ncc(-c2ccc(-c3ccc(N4CCC(NC5CCC5)C4)nn3)nc2F)s1 (centres unmarked)
Key: 100 to 1000 nM

Exercise: State the measured IC50 (SMN2 mRNA) of COc1cc(-c2ccc(-c3ccc(N4CC[C@H](N(C)C(C)(C)C)C4)nn3)c(O)c2)cnn1
Key: < 100 nM

Exercise: State the measured IC50 (SMN2 mRNA) of Cc1ncc(-c2cc(O)c(-c3ccc(N4CC[C@H](NCC5CCC5)C4)nn3)cc2F)s1
Key: < 100 nM

Exercise: State the measured IC50 (SMN2 mRNA) of Cc1ncc(-c2ccc(-c3ccc(N4CC[C@@H](N(C)C5CCC5)C4)nn3)c(O)c2)s1
Key: 100 to 1000 nM

Exercise: State the measured IC50 (SMN2 mRNA) of COc1cc(-c2ccc(-c3ccc(N4CC[C@](C)(NCC5CC5)C4)nn3)c(O)c2)ncn1
Key: < 100 nM

Exercise: State the measured IC50 (SMN2 mRNA) of Oc1cc(-c2cnnc(C3CC3)c2)ccc1-c1ccc(N2CC[C@H](NC3CCC3)C2)nn1
Key: 100 to 1000 nM

Exercise: State the measured IC50 (SMN2 mRNA) of COc1cc(-c2ccc(-c3ccc(N4CC[C@@H](N[C@H]5C[C@@H](F)C5)C4)nn3)c(O)c2)ncn1
Key: < 100 nM

---

System: SMN2 mRNA
protocolNotes: RT-qPCR splicing assay panel, SMN2 canonical junction (CJ) mRNA
Assay type: cell-based, human
conditionsUsed: Homo sapiens, canonical junction (CJ) mRNA, RT-qPCR panel, Table 4A; read-out: SMN2, decrease in CJ mRNA levels, IC50
Please provide measured IC50 for the entries that follow.

Exercise: State the measured IC50 (SMN2 mRNA) of COc1cc(-c2cc(O)c(-c3cnc(N4CC[C@H](NC5CCC5)C4)nn3)cc2F)cnn1 [Compound 321]
Key: 0.1 to 1 µM

Exercise: State the measured IC50 (SMN2 mRNA) of Cc1nc2ccc(-c3ccc(-c4ccc(N5CCC(NC6CCC6)C5)nn4)c(O)c3)cc2o1 (stereo not shown) [Compound 316]
Key: 0.1 to 1 µM

Exercise: State the measured IC50 (SMN2 mRNA) of Oc1cc(-c2cn[nH]c2)c(F)cc1-c1ccc(N2CC[C@H](NC3CCC3)C2)nn1 [Compound 113]
Key: < 0.1 µM

Exercise: State the measured IC50 (SMN2 mRNA) of Cc1nsc(-c2cc(O)c(-c3ccc(N4CC[C@@H](NCC5CC5)C4)nn3)cc2F)n1 [Compound 431]
Key: < 0.1 µM

---

Test system: HTT mRNA
protocolNotes: RT-qPCR splicing assay, HTT canonical (CJ) and alternative (AJ) junction mRNA
Type: cell-based, human
conditionsUsed: Homo sapiens, 24 h, Table 3A; A673 or K562 cells, 24 h treatment; read-out: HTT CJ (IC50, decrease in CJ mRNA)
pIC50: −log10 of the molar value. Structures can show the parent of a compound that is named as a salt.
Please provide measured pIC50 for the entries that follow.

Exercise: Find the measured pIC50 of Oc1cc(-c2cnc(C3CC3)s2)c(F)cc1-c1ccc(N2CCC(NC3CCC3)C2)nn1 (stereo not shown) and report it.
Key: < 5.00

Exercise: Find the measured pIC50 of CC(C)(C)NC1CCN(c2ccc(-c3ccc(-n4cccn4)c(O)c3)nn2)C1 (stereo not shown) [Compound 109, trifluoroacetate] and report it.
Key: 5.00 to 6.00

Exercise: Find the measured pIC50 of Oc1cc(-n2cnnc2)c(F)cc1-c1ccc(N2CCC(NC3CCC3)C2)nn1 (stereo not shown) and report it.
Key: 5.00 to 6.00

Exercise: Find the measured pIC50 of COc1cc(-c2ccc(-c3ccc(N4CC[C@H](NC5CC5)C4)nn3)c(O)c2)cnn1 and report it.
Key: > 7.00
